measuredTarget: HLA-A*0301 (Homo sapiens)
Construct: endogenous in cells; host or cells: GM3107
protocolText: HLA class I peptide binding assay
testParameters: Table XVI, Malaria A3 motif peptides; HLA-A*0301 binding value, unit not given
List of A*0301 (binding information) values.

| residues | A*0301 (binding information) |
| --- | --- |
| MTTNVEGR | 0.0002 |

stdin: // map NSEKDFIKK to recorded A*0301 (binding information) (system: HLA-A*0301 (Homo sapiens))
stdout: 0.0002

stdin: Moving on to the next sequence: MTTNVEGRR
stdout: 0.0002

stdin: And then LLIFNINGK , what is it?
stdout: 0.0260

* * *

Here the recorded DR4w15 binding data is given for each entry.
measuredTarget: DRB1*0405 (DR4w15) (Homo sapiens, UniProt P01903+P01911, A100R/A169T/D86S/F76Y/I96L/K127E/L162R/M171V/N62H/P40V/Q125Y/R42H/S133A/S149N/S66Y/V115G/V209L/W38E)
Construct: endogenous in cells; host or cells: KT3
protocolText: HLA class II peptide binding assay
testParameters: Table XIXb; DR4w15
Respond with the number and no other words.

| residues | DR4w15 binding data |
| --- | --- |
| VEKTASCGV | -0.0009 |
| IQNHTLETV | -0.0014 |
| YLLMDCSGS | -0.0014 |

stdin: I would be grateful if you could share the reported DR4w15 binding data for LAILSVSSF .
stdout: 0.0270

stdin: Please answer likewise for YDNAGINLY
stdout: -0.0009

stdin: Lookup VSTVLLGGV
stdout: -0.0014

stdin: Also YGRLEIPAI ?
stdout: 0.0170

* * *

In this section we review reported DR1 binding data values for a set of sequences.
measuredTarget: DRB1*0101 (DR1) (Homo sapiens, UniProt P01903+P01911, A100R/D57E/F55L/F60I/F76Y/I96L/L162R/M171V/P40L/Q125E/R42F/V115G/Y59C)
Construct: endogenous in cells; host or cells: LG2
Sequence (P01903 26-254 partner, other chains not shown): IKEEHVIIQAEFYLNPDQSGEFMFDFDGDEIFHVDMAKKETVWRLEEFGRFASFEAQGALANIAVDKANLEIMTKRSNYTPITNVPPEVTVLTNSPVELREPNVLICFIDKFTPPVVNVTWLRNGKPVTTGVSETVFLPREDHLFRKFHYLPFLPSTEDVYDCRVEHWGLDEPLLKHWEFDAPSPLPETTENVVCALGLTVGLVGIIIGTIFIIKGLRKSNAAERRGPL
protocolText: HLA class II peptide binding assay
testParameters: Table XIXb, Malaria Super Motif Peptides With Binding Data; DR1
// no unit, no text: just the number

| residues | DR1 binding data |
| --- | --- |
| YGRLEIPAI | 0.0004 |
| FMKAVCVEV | 0.0072 |
| LGGVGLVLY | 0.4900 |
| YLLMDCSGS | 0.0015 |

// switching to the query sequence
stdin: Reported DR1 binding data for LALLACAGL : what is it?
stdout: 0.0018

* * *

measuredTarget: DRB1*1302 (DR6w19) (Homo sapiens, UniProt P01903+P01911, A100E/A169T/K41T/L162R/M171V/P40S/Q125H/Q178H/Q39Y/Q99D/R42S/S66N/T262R/V115G/W38E/Y61H)
Construct: endogenous in cells; host or cells: H0301
Sequence (P01903 26-254, other chains not shown): as the sequence (P01903 26-254 partner, other chains not shown) above
protocolText: HLA class II peptide binding assay
testParameters: Table XIXb; DR6w19
Consider the following sequences and their measured DR6w19 binding data readings.
Please give the numeric answer without any surrounding text.

stdin: Give the measured DR6w19 binding data of FYFILVNLL .
stdout: 0.0003

stdin: Follow-up entry: FMKAVCVEV
stdout: 0.0003

stdin: Subsequent entry: LATSVLAGL
stdout: 0.0072

stdin: Now this one: WVNHAVPLA
stdout: 0.8900

stdin: Another: VHDLISDMI
stdout: 0.0004

stdin: Moving on to LAILSVSSF
stdout: 0.0930

stdin: Here is the next sequence: LALFFIIFN
stdout: -0.0002

stdin: Also need LTMSNVKNV , thanks.
stdout: 0.0430

* * *

measuredTarget: DRB1*0701 (DR7) (Homo sapiens, UniProt P01903+P01911, A100R/A102G/A103Q/D57E/D86V/E43K/F76Y/K127E/L162R/M171V/P40G/Q125H/Q99D/R33Q/R42Y/R54Q/S133A/S66F/T210M/V115G/Y107V/Y59L/Y89S)
Construct: endogenous in cells; host or cells: Pitout
protocolText: biochemical
Assay type: binding
Under this convention, yes (1) denotes DR7 binding data strictly below 0.0009 and no (0) denotes DR7 binding data at or above 0.0009.

| residues | classification |
| --- | --- |
| VNDFQISKY | yes (1) |

stdin: Below 0.0009 on DR7 binding data? Entry VEKTASCGV
stdout: no (0)

stdin: Record: IQNHTLETV
stdout: yes (1)

* * *

measuredTarget: DRB1*0802 (DR8w2) (Homo sapiens, UniProt P01903+P01911, A100R/A103L/A169T/F76Y/H45Y/I96F/K41T/L162R/M171V/P40S/Q125H/Q178H/Q39Y/Q99D/R218S/R42G/S66Y/V115G/W38E)
Construct: endogenous in cells; host or cells: OLL
protocolText: biochemical
Assay type: binding
propertyMeasured: DR8w2 binding data
The answer should be written as a number, with no unit following it.

| residues | observedMeasurement |
| --- | --- |
| LEEKAAKET | -0.0002 |
| YGRLEIPAI | 0.0021 |
| FQEYQCYGS | 0.0005 |
| LERTKASKE | -0.0003 |
| WVNHAVPLA | 1.8000 |
| VIGPFMKAV | 0.0230 |
| IQNHTLETV | -0.0003 |
| IAGGLALLA | 0.0004 |
| VNDFQISKY | -0.0003 |
| LGNVSTVLL | 0.0012 |

stdin: What does the record list as DR8w2 binding data for FMKAVCVEV ?
stdout: -0.0003

stdin: Next sequence up: LIFFDLFLV
stdout: 0.0007

stdin: Then LALFFIIFN ?
stdout: -0.0007

stdin: Would you mind doing VDLYLLMDC as well?
stdout: -0.0003

stdin: Now consider LATSVLAGL and answer again.
stdout: 0.1300

stdin: Note, next up: LAILSVSSF
stdout: 0.0013

stdin: Could you do the same for WDEWSPCSV , please?
stdout: -0.0003

stdin: One more sequence: YQNNIVDEI
stdout: -0.0003

stdin: Also FYFILVNLL ?
stdout: 0.0010

* * *

measuredTarget: DRB1*0701 (DR7) (Homo sapiens, UniProt P01903+P01911, A100R/A102G/A103Q/D57E/D86V/E43K/F76Y/K127E/L162R/M171V/P40G/Q125H/Q99D/R33Q/R42Y/R54Q/S133A/S66F/T210M/V115G/Y107V/Y59L/Y89S)
Construct: endogenous in cells; host or cells: Pitout
protocolText: biochemical
Format: binding
Entries annotated with measured DR7 binding data

Known results for sequences:
| residues | observedMeasurement |
| --- | --- |
| LIFFDLFLV | 0.0028 |
| LAMKLIQQL | 0.0770 |

# evaluate next
stdin: Can you share its DR7 binding data? I mean this sequence: LERTKASKE
stdout: 0.0010

* * *

measuredTarget: DRB1*0301 (DR3) (Homo sapiens, UniProt P01903+P01911, A100K/A102G/A103R/A169T/F55Y/I96L/K41T/L162R/M171V/P40S/Q125H/Q178H/Q39Y/R42S/S66N/T106N/T262R/W38E/Y61H)
Construct: endogenous in cells; host or cells: MAT
protocolText: HLA class II peptide binding assay (pH 4.5)
testParameters: Malaria DR3b motif peptides; unit not given
propertyMeasured: DR3 binding information
Please give only the number in your answer, with no unit.

Would you please look over these solved cases?
| residues | propertyMeasured | observedMeasurement |
| --- | --- | --- |
| IKPEQKEDK | DR3 binding information | -0.0033 |
| LDNERKQSD | DR3 binding information | -0.0130 |
| AWENVKNVI | DR3 binding information | -0.0130 |

Shift focus to the following entry.
stdin: Field request: DR3 binding information | item: AEKTNKGTG
stdout: -0.0033

* * *

measuredTarget: DRB1*0405 (DR4w15) (Homo sapiens, UniProt P01903+P01911, A100R/A169T/D86S/F76Y/I96L/K127E/L162R/M171V/N62H/P40V/Q125Y/R42H/S133A/S149N/S66Y/V115G/V209L/W38E)
Construct: endogenous in cells; host or cells: KT3
protocolText: HLA class II peptide binding assay
testParameters: Table XIXb; DR4w15
DR4w15 binding data values by entry
Keep it simple and answer with nothing but the number.

| residues | DR4w15 binding data |
| --- | --- |
| YQNNIVDEI | -0.0014 |
| LETVNISDV | 0.0016 |
| LHEGCTSEL | -0.0014 |
| VNHAVPLAM | 0.0400 |
| LALLACAGL | -0.0014 |

stdin: Which DR4w15 binding data value belongs to VVPGAATPY ?
stdout: -0.0014

stdin: Query WDEWSPCSV next
stdout: -0.0014
